B1: glmS ribozyme (parent)
chain: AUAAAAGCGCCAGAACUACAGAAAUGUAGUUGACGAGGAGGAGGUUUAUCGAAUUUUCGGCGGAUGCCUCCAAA

- Variants of: B1
- Method notes: self-cleavage kobs at 2500 uM GlcN6P; higher = faster cleavage; RNA array
- Condition notes: with glucosamine-6-phosphate
Variants at the floor of the assay were thinned out.
Okay, here is how we bin by self-cleavage kobs at 2500 uM GlcN6P: low class (below 0.0002 s⁻¹), middle class (0.0002 s⁻¹ to below 0.002 s⁻¹), high class (0.002 s⁻¹ or more)

Examples from the recorded data:
{"columns": ["Variant key", "Category label"],
 "data": [
  ["G29C A53C", "middle class"],
  ["U56G U65A", "middle class"],
  ["A39G U54G", "high class"],
  ["A6C G60A", "low class"],
  ["A36U U45A C50U U54C U57A", "low class"]
]}

[Q] Classify this variant: A15C C34U G66C
[A] low class

[Q] Try G38A G60U next.
[A] low class

[Q] Try U2C next.
[A] high class

[Q] Try U30G C71G next.
[A] low class

[Q] Try A42G U65A next.
[A] high class

[Q] Try U54G U56A G66A next.
[A] high class

[Q] Try A12C G38C U49C C50A next.
[A] low class

[Q] Try C67U C71U next.
[A] middle class

[Q] Try G13U G37C U45C C68U next.
[A] low class

[Q] Try A12G G32U C34U A53U next.
[A] low class

[Q] Try G32C A36G U47C next.
[A] low class

[Q] Try G29A C70A next.
[A] low class

[Q] Try U45A U69G next.
[A] low class

[Q] Try C16A C70G next.
[A] low class

[Q] Try A12U A15U U47C next.
[A] middle class

[Q] Try C11U A15C A48G U55A next.
[A] low class

[Q] Try A39U G51U C67U next.
[A] low class
